Exercise: state measured inhibition at 100 µM for each of the compounds provided.
test: Cytotoxicity against human SJG2 cells at 100 uM after 72 hrs by MTT assay; type: functional; details: SJ-G2, 72 h

Below are worked cases with known answers.
[
  {
    "lineNotation": "CC(C)(CO)N1C(=O)[C@@H]2[C@H](C1=O)[C@@H]1CC[C@H]2O1",
    "inhibition at 100 µM": "< 10%"
  },
  {
    "lineNotation": "O=C1[C@@H]2[C@H](C(=O)N1CCCN1CCOCC1)[C@@H]1CC[C@H]2O1",
    "inhibition at 100 µM": "< 10%"
  }
]

Turning now to a further compound:
Please give measured inhibition at 100 µM of the following entry: CCCCCCN1C(=O)[C@@H]2[C@H](C1=O)[C@@H]1CC[C@H]2O1 < 10%

FYI, the data here is from ChEMBL document CHEMBL1149648.
